src = ChEMBL document CHEMBL4296182

Reported Inhibition values follow for various compounds
System: Candida albicans
Conditions: 20 µM
Description: Antifungal activity against Candida albicans ATCC 90028 (CO-ADD:FG_001); MIC in YNB media using NBS plates, by OD630
Results with a measured potency or affinity are listed apart.
Hi! Could you send only the number? It should be in %, unit omitted.

CC1=CC(C)(C)N=C(S)N1c1cccc2cc(S(=O)(=O)O)ccc12 : 8.59
Cc1nc(O)c(Cc2ccccc2O)c(-c2ccccc2)n1 : 2.26
CCOC(=O)c1c[nH]nc1O : -1.88
NC(=O)SCC(=O)Nc1ccccc1C(=O)O : 9.98
Cc1ccc(S(=O)(=O)N2CC=C(N)N2)cc1 : -1.38

Briefly, Inhibition measured for O=C1CSCc2nc3ccccc3n21 : 1.65

Looking up CC1=NN(c2ccccc2)C(=O)C1C(=S)SC1CC(=O)NC1=O (configuration not stated) , I found its Inhibition recorded as 6.57

###

Tested on: Cryptococcus neoformans
Conditions: Concentration 20 uM; ASSAY_TEST Inhibition of Fungal Growth; detection method Resazurin; Absorption (OD600-OD570); plate type 384well; NBS; CORNING #3640
Description: Antifungal activity against Cryptococcus neoformans H99 ATCC 208821 (CO-ADD:FG_002); MIC in YNB media using NBS plates, by Resazurin OD(600-570)
Entries with a potency or affinity are not part of this list.
observable: Inhibition (%)
// return numeric value only (unit: %, not printed)

Previously resolved entries follow.
COc1ccc2c3c([nH]c2c1)[C@H]1C[C@H]2[C@H](C[C@@H](O)[C@H](OC)[C@H]2C(=O)O)CN1CC3 : -3.05
COc1cc(/C=C2\CCOC2=O)cc(OC)c1OC : -2.47
O=C(NC(=S)Nc1cc(Cl)ccc1O)c1cccc(Br)c1 : -0.86
O=[N+]([O-])c1c(N2CCN(CCO)CC2)nc2ccccn12 : -4.29

OC(C#Cc1ccccc1)(c1ccccc1)c1ccccc1 yielded Inhibition of -7.2

According to the records, this molecule O=C(O)C1=NN(c2cc(Cl)c(S(=O)(=O)O)cc2Cl)C(=O)C1 displays Inhibition of -14.45

response.value for COc1ccc(NC(=O)CC(C)=O)c(OC)c1 (field: Inhibition) = -3.01

molecule CN1C(=O)CC2(C)C1=CCc1scnc12 (stereo not given) , Inhibition observed: -1.43

Looking up O/N=C(/c1ccccc1)c1ccc2c3c(cccc13)CC2 , I see its Inhibition listed as -8.52

// Inhibition value for O=c1[nH]c(=S)c2ncn(-c3ccccc3)c2[nH]1 : -2.67

// Inhibition lookup, molecule = O=c1cc(-c2ccccc2)[nH]c2cc(-c3ccco3)nn12 , result: -17.18

Reported Inhibition ( C(=C\c1ccccn1)/c1ccccn1 ) = 26.47

Input COC(=O)C1=CC(=O)N2CCN=C2S1 . Output Inhibition: -1.02

# molecule C=CCOc1ccc(S(C)(=O)=O)cc1 ; its Inhibition = -10.45

The value of Inhibition measured for the molecule Cc1ccc(Nc2nc(Cl)nc3ncn(C)c23)c(C)c1 turned out to be -7.52

The molecule Nc1cc([N+](=O)[O-])ccc1N1C(=O)CCCC1=O showed Inhibition equal to -9.22

The value of Inhibition measured for the molecule CCOC(=O)c1nn(C)c2[nH]c(=O)n(C)c(=O)c12 turned out to be -11.62

The recorded Inhibition for c1ccc(-c2nc3ccccc3s2)nc1 is -15.52

Summary for this molecule, CCOC(=O)/C(=N\O)C1=CSC2=NNC(C)(C)N12 : Inhibition is -6.65

Lab note: measured Inhibition of COc1cc2c(cc1OC)C(/C=C/c1ccco1)=NCC2.O=S(=O)(O)O was -6.67

Recorded Inhibition (molecule O=S(=O)(Oc1ccc(Cl)cc1)c1cccc2cccnc12 ): -3.12

Notebook: N#CNC(=N)c1ccccc1 , Inhibition read as 22.72

###

Tested on: Escherichia coli
Assay: Antibacterial activity against Escherichia coli ATCC 25922 (CO-ADD:GN_001); MIC in CAMBH media using NBS plates, by Resazurin F(560/590)
Type: functional
Conditions: Concentration 20 uM, ASSAY_TEST Inhibition of Bacterial Growth, detection method Resazurin, Fluorescence (ex560/em590), MEDIA CAMHB, plate type 384well, CORNING #3640, time 18 hr
Measured Inhibition, listed per entry for reference.
// note: answer is a bare numeric in %

O=C(NC(=S)Nc1ccccn1)c1ccccc1 : 5.5
O=C(c1ccccc1)c1ccc[nH]1 : -15.34
Cc1cc(O)c(C(C)C)cc1NC(=O)Nc1cccc2ccccc12 : 2.96

Entry COC1OC2COC(c3ccccc3)OC2C(=O)C1NC(=O)c1ccccc1 (stereo not drawn) , Inhibition reported as 10.65

Please fill in: Inhibition reported for N#Cc1nnn2c1nc(N)c1c(Cl)cccc12 = 2.46

The reported Inhibition of the compound COC(=O)C1CC(O)C(O)C(O)C1 (stereo not drawn) was 12.92

Inhibition in this record for O=C(O)C(c1ccccc1)C1(O)CCCCC1 (stereo not drawn) : 11.15

response.value for Cc1ccc(C(C)C)cc1NC(=O)Nc1ccc([N+](=O)[O-])cc1 (field: Inhibition) = -5.77

###

Test system: Staphylococcus aureus
Test: Antibacterial activity against Staphylococcus aureus MRSA ATCC 43300 (CO-ADD:GP_020); MIC in CAMBH media using NBS plates, by Resazurin F(560/590)
Assay type: functional
Conditions: Concentration 20 uM, ASSAY_TEST Inhibition of Bacterial Growth, detection method Resazurin, Fluorescence (ex560/em590), MEDIA CAMHB, plate type 384well, CORNING #3640, time 18 hr
Reported values of Inhibition for individual entries
Report the figure in % without appending any unit label.

O=C(Nc1cccnc1)c1cccc([N+](=O)[O-])c1 : 12.72

Considering CC1=CC(=C2C=CC(=O)C=C2)C=C(C)N1C , its Inhibition with Staphylococcus aureus was recorded as 0.37

I looked up O=C(Nc1ccccc1)Oc1cccnc1O and its Inhibition for Staphylococcus aureus was 7.3

Test item Cc1ccc(/N=N/c2ccc(N)cc2C)c(S(N)(=O)=O)c1 ; Staphylococcus aureus; reported Inhibition was -7.58

Log: Staphylococcus aureus, compound O=C(O)CSc1ccc(NC(=O)Nc2ccccc2F)cc1 , Inhibition = 18.21

Considering Brc1csc2ncccc12 , its Inhibition with Staphylococcus aureus was recorded as 8.68

Given the compound Cn1cnc([N+](=O)[O-])c1Sc1nnc(-c2cccnc2)n1C and test system Staphylococcus aureus, the measured Inhibition is 12.02

###

Test system: Escherichia coli
Experiment: Antibacterial activity against Escherichia coli ATCC 25922 (CO-ADD:GN_001); MIC in CAMBH media using NBS plates, by Resazurin F(560/590)
Type: functional
Details: Concentration 20 uM, ASSAY_TEST Inhibition of Bacterial Growth, detection method Resazurin, Fluorescence (ex560/em590), MEDIA CAMHB, plate type 384well, CORNING #3640, time 18 hr
Listed below: Inhibition values for each entry.
Response body: numeric value in %, unit text excluded.

Cc1nn(-c2ccccc2)nc1C(=O)Nc1ccc2[nH]ncc2c1 : 5.87
O=[N+]([O-])c1cccnc1Oc1cc(Cl)c(Cl)cc1Cl : 1.62
O=C(NC1CCCCC1)c1cc2ccccc2cc1O : 4.75

# lookup: NC(=O)C1=CC2C3C=CC2(O)C(=O)OC3O1 (configuration not stated) on Escherichia coli, Inhibition = -7.05

# O=C1c2ccccc2C(=O)N1c1nc[nH]n1 with Escherichia coli: Inhibition is 12.38

Query Cc1ccc(S(=O)(=O)Oc2cc(N)c3c(n2)CCC3)cc1 on Escherichia coli; Inhibition returned: 7.8

Reading of Inhibition for COc1cc2c(cc1OC)C(=O)Cc1ccc3c(c1CN(C)CC2)OCO3 with Escherichia coli: 18.89

Given the compound N=C(N)NS(=O)(=O)c1ccc(/N=C2/C(=O)Nc3ccccc32)cc1 and test system Escherichia coli, the measured Inhibition is 11.61

###

Tested on: Staphylococcus aureus
Test: Antibacterial activity against Staphylococcus aureus MRSA ATCC 43300 (CO-ADD:GP_020); MIC in CAMBH media using NBS plates, by Resazurin F(560/590)
Type: functional
Settings: Concentration 20 uM, ASSAY_TEST Inhibition of Bacterial Growth, detection method Resazurin, Fluorescence (ex560/em590), MEDIA CAMHB, plate type 384well, CORNING #3640, time 18 hr
Classify by measured Inhibition: class 1 if it is equal to or exceeds 7%, class 0 if it is smaller.

Solved cases (4 shown):
NC(=O)c1ccc(/N=N/c2c(O)c3ccccc3[nH]c2=O)cc1 : class 0
COC(=O)c1cc2c(n1S(=O)(=O)c1ccc(C)cc1)C(=O)C(=O)c1[nH]cc(C(=O)OCc3ccccc3)c1-2 : class 1
O=C(Nc1ccc(Oc2ccc(NC(=O)Nc3ccccc3Cl)cc2)cc1)Nc1ccccc1Cl : class 1
O=C(O)C1OCC2(CO1)COC(C(=O)O)OC2 (stereo unspecified) : class 1

Data request: State whether the measured Inhibition reaches 7%, counting equality as reaching it, for Nc1ccc2c(c1)nnn2-c1ccccc1
Data returned: class 1

###

Test system: Candida albicans
Settings: 20 µM
Results with a measured potency or affinity are listed apart.
# Inhibition listing for each entry below
Numbers only; they are read as %.

Example entries and their recorded answers appear below.
N[C@H](C(=O)O)[C@H]1ON=C(Cl)[C@@H]1O : 2.6
CCCCSc1nc(O)cc(C(=O)O)n1 : 2.48
N=C(N)Nc1nc2cc([N+](=O)[O-])ccc2[nH]1 : -2.1
COc1ccccc1/C=C1\Cc2ccccc2C1=O : 10.8
O=C(O)CSc1nc2ccccc2s1 : 13.9
COc1ccc(NC(=O)N2CCN(C(=O)Nc3ccc(OC)cc3)CC2)cc1 : -1.52
O=[N+]([O-])c1ccc(Cn2cnc3c(O)ncnc32)cc1 : 2.42
O=C(Nc1ccccc1)Oc1cccnc1O : 5.22
Cc1cc(=O)oc2cc(OS(C)(=O)=O)ccc12 : 0.46
Clc1ccc(-c2[nH]nc3c2Cc2ccccc2-3)cc1Cl : 5.84

Tested on Candida albicans: CSc1ccc(NC(=O)Nc2cc(C)ccn2)cc1 . Observed Inhibition: 0.13

// returns Inhibition for COc1ccc(Cc2nnc(SC)n2-c2ccc(F)cc2)cc1OC with Candida albicans; value = 2.19
